test system: HepG2; assay: Cytotoxicity against human HepG2 cells; format: functional, cell-based
The label rule met is reserved for IC50 strictly under 4 µM; rule not met covers values equal to or above it.

Worked set:
>  <MOLECULE>
CC1=C[C@@]23O[C@]2(CO1)C(=O)c1ccccc1C3=O

>  <ASSIGNED CATEGORY>
rule not met

$$$$
>  <MOLECULE>
O=C1c2ccccc2C(=O)[C@]23COC(c4ccc(F)cc4)=C[C@]12O3

>  <ASSIGNED CATEGORY>
rule not met

$$$$
>  <MOLECULE>
CC1=CC2=C(CO1)C(=O)c1ccccc1C2=O

>  <ASSIGNED CATEGORY>
rule not met

$$$$
>  <MOLECULE>
CC1C[C@@]23O[C@]2(CO1)C(=O)c1ccccc1C3=O (some centres undefined)

>  <ASSIGNED CATEGORY>
rule not met

$$$$

(Q) For this molecule, is IC50 lower than 4 µM? O=C1C2=C(CC(c3ccccc3)OC2)C(=O)c2ccccc21 (centres undefined)
(A) rule not met

(Q) For this molecule, is IC50 lower than 4 µM? `Cc1c2ccncc2c(C)c2c1[nH]c1ccccc12`
(A) rule met

(Q) For this molecule, is IC50 lower than 4 µM? `CC(C)C1=CC2=C(CO1)C(=O)c1ccccc1C2=O`
(A) rule not met

(Q) For this molecule, is IC50 lower than 4 µM? CC1CC2=C(CO1)C(=O)c1ccccc1C2=O (centres undefined)
(A) rule not met

(Q) For this molecule, is IC50 lower than 4 µM? `O=C1C2=C(COC(c3ccc(F)cc3)=C2)C(=O)c2ccccc21`
(A) rule met

###

test system: HepG2; test: Cytotoxicity against human HepG2 cells; format: functional, cell-based
Listed here: items and their measured pIC50.
Schema: pIC50 number; meaning minus log10 of the concentration expressed in molar units.

Below, 2 compounds whose answers are already recorded.
>  <COMPOUND>
O=C1C2=C(CC(c3ccc(F)cc3)OC2)C(=O)c2ccccc21 (stereo unspecified)

>  <NUMERIC READOUT>
4.63

$$$$
>  <COMPOUND>
O=C1C2=C(COC(c3ccccc3)=C2)C(=O)c2ccccc21

>  <NUMERIC READOUT>
4.91

$$$$

Now for the compound whose pIC50 we want.
The compound CC(C)C1CC2=C(CO1)C(=O)c1ccccc1C2=O (stereo unspecified) showed pIC50 equal to 4.70

###

system: Pseudomonas aeruginosa; assay: Antibacterial activity against Pseudomonas aeruginosa; assay type: functional, organism-based
The source made the active and inactive calls. The rule behind the calls is not given here.

>  <COMPOUND>
O=C1C2=C(COC(c3ccccc3)=C2)C(=O)c2ccccc21

>  <Activity>
inactive

$$$$
>  <COMPOUND>
CC1=CC2=C(CO1)C(=O)c1ccccc1C2=O

>  <Activity>
inactive

$$$$
>  <COMPOUND>
O=C1C2=C(CC(c3ccccc3)OC2)C(=O)c2ccccc21 (stereo not drawn)

>  <Activity>
inactive

$$$$

###

Listed here: items and their measured pIC50.
system: KB; assay: Cytotoxicity against human KB cells; type: functional, cell-based
Schema: pIC50 number; meaning minus log10 of the concentration expressed in molar units.

>  <MOLECULE>
O=C1C2=C(COC(c3ccc(F)cc3)=C2)C(=O)c2ccccc21

>  <pIC50>
5.82

$$$$

Now for the molecule whose pIC50 we want.
The molecule CC(C)C1CC2=C(CO1)C(=O)c1ccccc1C2=O (stereo not drawn) showed pIC50 equal to 4.76

###

test system: KB; assay: Cytotoxicity against human KB cells; format: functional, cell-based
TEST READOUT: pIC50
Schema: pIC50 number; meaning minus log10 of the concentration expressed in molar units.

Below, 5 compounds whose answers are already recorded.
>  <COMPOUND>
O=C1C2=C(COC(c3ccccc3)=C2)C(=O)c2ccccc21

>  <pIC50>
5.12

$$$$
>  <COMPOUND>
CC(C)C1=CC2=C(CO1)C(=O)c1ccccc1C2=O

>  <pIC50>
5.39

$$$$
>  <COMPOUND>
O=C1C2=C(CC(c3ccccc3)OC2)C(=O)c2ccccc21 (stereo unspecified)

>  <pIC50>
4.79

$$$$
>  <COMPOUND>
O=C1C2=C(CC(c3ccc(F)cc3)OC2)C(=O)c2ccccc21 (stereo unspecified)

>  <pIC50>
4.69

$$$$
>  <COMPOUND>
CC1CC2=C(CO1)C(=O)c1ccccc1C2=O (stereo unspecified)

>  <pIC50>
4.60

$$$$

Now for the compound whose pIC50 we want.
The compound `CC1=CC2=C(CO1)C(=O)c1ccccc1C2=O` showed pIC50 equal to 5.25

###

system: HepG2; experiment: Cytotoxicity against human HepG2 cells; type: functional, cell-based
pIC50: −log10 of the molar value.
TEST READOUT: pIC50

Below, 2 compounds whose answers are already recorded.
>  <COMPOUND>
O=C1c2ccccc2C(=O)[C@]23COC(c4ccccc4)=C[C@]12O3

>  <SUBJECT OF TEST>
HepG2

>  <pIC50>
< 4.48

$$$$
>  <COMPOUND>
CC(C)C1C[C@@]23O[C@]2(CO1)C(=O)c1ccccc1C3=O (stereo partly drawn)

>  <SUBJECT OF TEST>
HepG2

>  <pIC50>
< 4.49

$$$$

Now for the compound whose pIC50 we want.
The compound O=C1c2ccccc2C(=O)[C@]23COC(c4ccc(F)cc4)C[C@]12O3 (stereo partly drawn) showed pIC50 equal to < 4.51

###

Listed here: items and their measured pIC50.
system: KB; experiment: Cytotoxicity against human KB cells; format: functional, cell-based
pIC50: −log10 of the molar value.

The compound CC1C[C@@]23O[C@]2(CO1)C(=O)c1ccccc1C3=O (stereo not given in full) showed pIC50 equal to < 4.39

The compound `O=C1c2ccccc2C(=O)[C@]23COC(c4ccc(F)cc4)=C[C@]12O3` showed pIC50 equal to < 4.51

The compound `O=C1c2ccccc2C(=O)[C@]23COC(c4ccccc4)=C[C@]12O3` showed pIC50 equal to < 4.48

The compound `CC1=C[C@@]23O[C@]2(CO1)C(=O)c1ccccc1C3=O` showed pIC50 equal to < 4.38

The compound O=C1c2ccccc2C(=O)[C@]23COC(c4ccc(F)cc4)C[C@]12O3 (stereo not given in full) showed pIC50 equal to < 4.51
